Values were extracted from ChEMBL document CHEMBL4619796.

# TEST SUMMARY: Metabolic stability in cynomolgus monkey liver microsomes assessed as parent compound remaining at 10 uM preincubated for 10 mins in water bath followed by NADPH addition and measured after 60 mins by LC-MS/MS analysis
# Assay type: ADME, Macaca fascicularis, Microsome
# ASSAY CONDITIONS: read-out: Stability
ENDPOINT NAME: remaining at 1 h, 10 µM (%)
Record the value in %, omitting the unit from your answer.

Supply measured remaining at 1 h, 10 µM of `CNC(=O)[C@H](C)Cn1cnc2ccc(-c3cnc(OC)c(NS(=O)(=O)c4ccc(F)cc4Cl)c3)cc2c1=O` in your reply.
13.7

----------
# Species on record: Homo sapiens
# TEST SUMMARY: Selectivity ratio of IC50 for PI3Kdelta (unknown origin) using PIP2:3PS peptide as substrate preincubated for 15 mins followed by ATP addition at Km concentration and further incubated for 120 mins by ADP-Glo assay to IC50 for PI3Kalpha (unknown origin) using PIP2:3PS peptide as substrate preincubated for 15 mins followed by ATP addition at Km concentration and further incubated for 150 mins by ADP-Glo assay
For each entry below, report its Ratio IC50 value.

Query Ratio IC50 for COc1ncc(-c2ccc3ncn(CC(N)C(N)=O)c(=O)c3c2)cc1NS(=O)(=O)c1ccc(F)cc1Cl (racemic)
4.75

// Input: `COc1ncc(-c2ccc3ncn(CCC(N)=O)c(=O)c3c2)cc1NS(=O)(=O)c1ccc(F)cc1Cl` . Output its Ratio IC50 only.
3.34

Assign Ratio IC50 to the following record: `COc1ncc(-c2ccc3ncn(C[C@@H](C)C(=O)NCC(C)C)c(=O)c3c2)cc1NS(=O)(=O)c1ccc(F)cc1Cl`
3.03

Quick one: give measured Ratio IC50 for `COc1ncc(-c2ccc3ncn(C[C@@H](C)C(=O)N4CCOCC4)c(=O)c3c2)cc1NS(=O)(=O)c1ccc(F)cc1Cl`
0.38

Please report Ratio IC50 for the following compound: `CNC(=O)[C@H](C)Cn1cnc2ccc(-c3cnc(OC)c(NS(=O)(=O)c4c(C)noc4C)c3)cc2c1=O`
4.52

State, in one line, measured Ratio IC50 of `COCCNC(=O)[C@H](C)Cn1cnc2ccc(-c3cnc(OC)c(NS(=O)(=O)c4ccc(F)cc4Cl)c3)cc2c1=O`
6.06

Tell me its Ratio IC50 given `CCc1ncc(-c2ccc3ncn(C[C@@H](C)C(=O)NC)c(=O)c3c2)cc1NS(=O)(=O)c1ccc(F)cc1Cl` as the entry.
13.8

Quote Ratio IC50 reported for `CCNC(=O)[C@H](C)Cn1cnc2ccc(-c3cnc(OC)c(NS(=O)(=O)c4ccc(F)cc4Cl)c3)cc2c1=O` please.
5.63

Given `CNC(=O)[C@H](C)Cn1cnc2ccc(-c3cnc(C)c(NS(=O)(=O)c4ccc(F)cc4Cl)c3)cc2c1=O` , respond with its Ratio IC50.
17

State its Ratio IC50: `CNC(=O)[C@H](C)Cn1cnc2ccc(-c3cnc(OC)c(NS(=O)(=O)c4ccc(F)cc4)c3)cc2c1=O`
9.16

Consider the compound `CNC(=O)[C@H](C)Cn1cnc2ccc(-c3cnc(OC)c(NS(=O)(=O)c4ccc(Cl)cc4Cl)c3)cc2c1=O` . State its measured Ratio IC50.
5.38

Kindly indicate its recorded Ratio IC50. Item: `CCC(CC)NC(=O)[C@H](C)Cn1cnc2ccc(-c3cnc(OC)c(NS(=O)(=O)c4ccc(F)cc4Cl)c3)cc2c1=O`
3.11

Annotate the compound `CNC(=O)[C@H](C)Cn1cnc2ccc(-c3cnc(OC)c(NS(=O)(=O)c4sc(C)nc4C)c3)cc2c1=O` with its measured Ratio IC50.
2.08

Read off the recorded Ratio IC50 for `COc1ncc(-c2ccc3ncn(CC(F)(F)C(N)=O)c(=O)c3c2)cc1NS(=O)(=O)c1ccc(F)cc1Cl`
2.69

Input `COc1ncc(-c2ccc3ncn(C[C@@H](C)C(N)=O)c(=O)c3c2)cc1NS(=O)(=O)c1ccc(F)cc1Cl` , output reported Ratio IC50.
5.03

Please report Ratio IC50 for the following compound: `COc1ncc(-c2ccc3ncn(C[C@@H](C)C(=O)NCC(F)(F)F)c(=O)c3c2)cc1NS(=O)(=O)c1ccc(F)cc1Cl`
3.41

----------
Exercise: state measured AUClast/dose for each of the compounds provided.
# TEST SUMMARY: Dose normalized AUC (0 to last) in BALB/c mouse at 10 mg/kg, po by HPLC analysis
# Format: ADME, organism-based
# ASSAY CONDITIONS: in vivo
// units = nM·h; emit number, no label

# return recorded AUClast/dose for input `CNC(=O)[C@H](C)Cn1cnc2ccc(-c3cnc(OC)c(NS(=O)(=O)c4ccc(F)cc4Cl)c3)cc2c1=O`
3090

Return value of AUClast/dose for input `COc1ncc(-c2ccc3ncn(C[C@@H](C)C(=O)NC4CCC4)c(=O)c3c2)cc1NS(=O)(=O)c1ccc(F)cc1Cl` , no commentary.
302

Please indicate AUClast/dose recorded for `CNC(=O)[C@H](C)Cn1cnc2ccc(-c3cnc(OC)c(NS(=O)(=O)c4ccc(Cl)cc4Cl)c3)cc2c1=O`
6260

Write down AUClast/dose measured for item `CNC(=O)[C@H](C)Cn1cnc2ccc(-c3cnc(OC)c(NS(=O)(=O)c4cccc(C(F)(F)F)c4)c3)cc2c1=O`
2020

Please report the measured AUClast/dose for `CNC(=O)[C@H](C)Cn1cnc2ccc(-c3cnc(OC)c(NS(=O)(=O)c4ccc(F)cc4)c3)cc2c1=O`
1370

Please supply the value of reported AUClast/dose for the item `CNC(=O)[C@H](C)Cn1cnc2ccc(-c3cnc(OC)c(NS(=O)(=O)c4cccc(Cl)c4Cl)c3)cc2c1=O`
5700

----------
# Organism: Homo sapiens
# TEST SUMMARY: Selectivity ratio of IC50 for PI3Kdelta (unknown origin) using PIP2:3PS peptide as substrate preincubated for 15 mins followed by ATP addition at Km concentration and further incubated for 120 mins by ADP-Glo assay to IC50 for PI3Kalpha (unknown origin) using PIP2:3PS peptide as substrate preincubated for 15 mins followed by ATP addition at Km concentration and further incubated for 150 mins by ADP-Glo assay
Label yes (1) when Ratio IC50 is strictly below 7; at or above that, label no (0).

Item `COc1ncc(-c2ccc3ncn(CC4(C(N)=O)CC4)c(=O)c3c2)cc1NS(=O)(=O)c1ccc(F)cc1Cl` : Ratio IC50 beneath 7, strictly?
yes (1)

In the record for `CNC(=O)[C@H](C)Cn1cnc2ccc(-c3cnc(OC)c(NS(=O)(=O)c4cccc(Cl)c4Cl)c3)cc2c1=O` , is Ratio IC50 less than 7?
no (0)

Please state whether Ratio IC50 is below 7 for `CNC(=O)[C@H](C)Cn1cnc2ccc(-c3cnc(OC)c(NS(=O)(=O)c4cccc(C(F)(F)F)c4)c3)cc2c1=O`
yes (1)

Does `COc1ncc(-c2ccc3ncn(C[C@@H](C)C(=O)NCCF)c(=O)c3c2)cc1NS(=O)(=O)c1ccc(F)cc1Cl` have Ratio IC50 strictly under 7?
no (0)

Please determine if `COc1ncc(-c2ccc3ncn(C[C@@H](C)C(=O)NC4CCC4)c(=O)c3c2)cc1NS(=O)(=O)c1ccc(F)cc1Cl` is below 7 in terms of Ratio IC50.
yes (1)

Please determine if `COc1ncc(-c2ccc3ncn(C[C@@H](C)C(=O)NC(C)C)c(=O)c3c2)cc1NS(=O)(=O)c1ccc(F)cc1Cl` is below 7 in terms of Ratio IC50.
yes (1)

----------
# TEST SUMMARY: Clearance in Sprague-Dawley rat at 1 mg/kg, iv by HPLC analysis
# Type: ADME, organism-based
# ASSAY CONDITIONS: in vivo
ENDPOINT NAME: clearance (mL/min/kg)
State just the number; it will be interpreted in mL/min/kg.

Give a short answer stating reported clearance for `CNC(=O)[C@H](C)Cn1cnc2ccc(-c3cnc(OC)c(NS(=O)(=O)c4ccc(F)cc4Cl)c3)cc2c1=O` .
5.28

----------
# Organism: Homo sapiens
# TEST SUMMARY: Selectivity ratio of IC50 for PI3Kbeta (unknown origin) using PIP2:3PS peptide as substrate preincubated for 15 mins followed by ATP addition at Km concentration and further incubated for 120 mins by ADP-Glo assay to IC50 for PI3Kalpha (unknown origin) using PIP2:3PS peptide as substrate preincubated for 15 mins followed by ATP addition at Km concentration and further incubated for 150 mins by ADP-Glo assay
I'd appreciate it if you could supply Ratio IC50 values for the items below.
Please reply with the number alone, leaving off any unit.

Tell me its Ratio IC50 given `COc1ncc(-c2ccc3ncn(CCCC(N)=O)c(=O)c3c2)cc1NS(=O)(=O)c1ccc(F)cc1Cl` as the entry.
30

Quickly give me recorded Ratio IC50 for `CCC(CC)NC(=O)[C@H](C)Cn1cnc2ccc(-c3cnc(OC)c(NS(=O)(=O)c4ccc(F)cc4Cl)c3)cc2c1=O`
259

State its Ratio IC50 for this compound: COc1ncc(-c2ccc3ncn(CC(N)C(N)=O)c(=O)c3c2)cc1NS(=O)(=O)c1ccc(F)cc1Cl (racemic)
33.9

Could you please provide reported Ratio IC50 for `COc1ncc(-c2ccc3ncn(C[C@@H](C)C(=O)NCC(F)(F)F)c(=O)c3c2)cc1NS(=O)(=O)c1ccc(F)cc1Cl` ? Thanks!
107

Answer with the recorded Ratio IC50 of `COc1ncc(-c2ccc3ncn(C[C@@H](C)C(=O)NCC(C)C)c(=O)c3c2)cc1NS(=O)(=O)c1ccc(F)cc1Cl` only.
424

Specify Ratio IC50 for `CNC(=O)[C@H](C)Cn1cnc2ccc(-c3cnc(N)c(NS(=O)(=O)c4ccc(F)cc4Cl)c3)cc2c1=O` and stop.
283

Supply Ratio IC50 value. Item: `CNC(=O)[C@H](C)Cn1cnc2ccc(-c3cnc(C)c(NS(=O)(=O)c4ccc(F)cc4Cl)c3)cc2c1=O`
406

Tell me its Ratio IC50 given `COc1ncc(-c2ccc3ncn(C[C@@H](C)C(=O)NCCF)c(=O)c3c2)cc1NS(=O)(=O)c1ccc(F)cc1Cl` as the entry.
162

Give Ratio IC50 for the following compound: `CNC(=O)[C@H](C)Cn1cnc2ccc(-c3cnc(OC)c(NS(=O)(=O)c4sccc4C)c3)cc2c1=O`
43.1

Read off the recorded Ratio IC50 for `CNC(=O)[C@H](C)Cn1cnc2ccc(-c3cnc(N(C)C)c(NS(=O)(=O)c4ccc(F)cc4Cl)c3)cc2c1=O`
59.5

Given CNC(=O)C(C)Cn1cnc2ccc(-c3cnc(OC(F)(F)F)c(NS(=O)(=O)c4ccc(F)cc4Cl)c3)cc2c1=O (racemic) , respond with its Ratio IC50.
94.9

Give the measured Ratio IC50 for `CCN(CC)C(=O)[C@H](C)Cn1cnc2ccc(-c3cnc(OC)c(NS(=O)(=O)c4ccc(F)cc4Cl)c3)cc2c1=O`
5.97

Using known records, supply Ratio IC50 for `CNC(=O)[C@H](C)Cn1cnc2ccc(-c3cnc(OC)c(NS(=O)(=O)c4ccc(F)cc4)c3)cc2c1=O`
106

Using the record for `COc1ncc(-c2ccc3ncn(CC4(C(N)=O)CC4)c(=O)c3c2)cc1NS(=O)(=O)c1ccc(F)cc1Cl` , state its measured Ratio IC50.
14.4

Identify Ratio IC50 associated with the compound `CNC(=O)[C@H](C)Cn1cnc2ccc(-c3cnc(OC)c(NS(=O)(=O)c4c(C)noc4C)c3)cc2c1=O`
146

// Input: CNC(=O)C(C)Cn1cnc2ccc(-c3cnc(C(F)(F)F)c(NS(=O)(=O)c4ccc(F)cc4Cl)c3)cc2c1=O (racemic) . Output its Ratio IC50 only.
196
